Reference source for all entries: paper PMC10814857

Peptide text beside a SMILES is read from it.
quantity_kind: Kd

## Task Enter reported Kd observed with ITSN1-5 SH3 domain (aa 1155-1214) (Homo sapiens) for CC(C)[C@H](N)C(=O)N1CCC[C@H]1C(=O)N[C@H](C(=O)N1CCC[C@H]1C(=O)N1CCC[C@H]1C(=O)N1CCC[C@H]1C(=O)N[C@H](C(=O)N1CCC[C@H]1C(=O)N1CCC[C@H]1C(=O)N[C@@H](CCCNC(=N)N)C(=O)N[C@@H](CCCNC(=N)N)C(=O)N[C@@H](CCCNC(=N)N)C(=O)O)C(C)C)C(C)C [RP1, reference compound]
Sequence (Q15811 1155-1214): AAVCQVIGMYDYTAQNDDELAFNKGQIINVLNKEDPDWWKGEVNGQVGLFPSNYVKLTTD
## Result > 200 µM

## Task Lab note: need Kd for CC(C)[C@H](NC(=O)[C@@H]1CCCN1C(=O)[C@@H]1CCCN1C(=O)[C@H](C)NC(=O)[C@H](CCC(=O)O)NC(=O)[C@H](CS)NC(=O)[C@@H](N)CCCNC(=N)N)C(=O)N1CCC[C@H]1C(=O)N1CCC[C@H]1C(=O)N[C@@H](CCCNC(=N)N)C(=O)N[C@@H](CCCNC(=N)N)C(=O)N[C@@H](CCC(=O)O)C(=O)N[C@@H](CCCNC(=N)N)C(=O)NCC(=O)O [RP2, reference compound] (H-RCEAPPVPPRRERG-OH) on ITSN1-5 SH3 domain (aa 1155-1214) (Homo sapiens), anyone have it?
## Result 23 µM

## Task Lab note: need Kd for CC(C)C[C@H](NC(=O)[C@@H]1CCCN1C(=O)[C@@H]1CCCN1C(=O)[C@H](CO)NC(=O)[C@@H]1CCCN1C(=O)[C@H](CC(C)C)NC(=O)[C@H](Cc1c[nH]cn1)NC(=O)[C@@H](N)CCCNC(=N)N)C(=O)N[C@H](C(=O)N[C@@H](CCC(N)=O)C(=O)O)[C@@H](C)O [Peptide P8] (H-RHLPSPPLTQ-OH; N-terminus and C-terminus assumed) on ITSN1-5 SH3 domain (aa 1155-1214) (Homo sapiens), anyone have it?
## Result > 200 µM

## Task Which measured Kd belongs to CC[C@H](C)[C@H](N)C(=O)N[C@@H](C)C(=O)NCC(=O)N1CCC[C@H]1C(=O)N1CCC[C@H]1C(=O)N[C@H](C(=O)N1CCC[C@H]1C(=O)N1CCC[C@H]1C(=O)N[C@@H](CCCNC(=N)N)C(=O)N[C@@H](CCC(N)=O)C(=O)N[C@@H](CO)C(=O)O)C(C)C [Peptide P9] (H-IAGPPVPPRQS-OH) , tested on ITSN1-5 SH3 domain (aa 1155-1214) (Homo sapiens)?
## Result > 200 µM
